For each of the molecules below, state its half-life.
protocol.notes: Half life in Sprague-Dawley rat at 3 mg/kg, po or 1 mg/kg, iv by LC-MS/MS analysis
Assay type: ADME, organism-based
details: in vivo
Give the figure together with its unit, number first.

Some solved cases for reference:
O=C(/C=C/c1ccccc1)N1CCC2(CCCC(=O)N2c2ccc(Cl)c(F)c2)CC1 1.1 h
O=C1CCCC2(CCN(c3cc(OCC(F)(F)F)ncn3)CC2)N1c1ccc(F)c(F)c1 2.8 h
O=C(/C=C/c1ccccc1)N1CCC2(CCCC(=O)N2c2ccccc2)CC1 2.9 h
O=C(/C=C/c1ccccc1)N1CCC2(CCCC(=O)N2c2ccc(F)c(F)c2)CC1 0.8 h

Moving on to another molecule below.
Input: Give the reported half-life for this molecule. O=C1CCCC2(CCN(c3cc(OCC(F)(F)F)ncn3)CC2)N1c1ccc(Cl)c(F)c1
Output: 3.5 h

* * *

protocol.notes: AUC (0 to infinity) in cynomolgus monkey at 0.3 mg/kg, po measured upto 24 hrs by LC-MS/MS analysis
Assay type: ADME, organism-based, Macaca fascicularis
details: in vivo
readout.name: AUC(0-inf)

Input: Note AUC(0-inf) for the compound shown: O=C1CCCC2(CCN(c3cc(OCC(F)(F)F)ncn3)CC2)N1c1ccc(F)c(F)c1
Output: 0.783 µM·h

* * *

Kindly state microsomal CLint for each of the entries shown.
protocol.notes: Microsomal stability in mouse liver microsome assessed as intrinsic clearance
Assay type: ADME
details: liver microsomes, read-out: CLH

compound	microsomal CLint
O=C(/C=C/C1CCC1)N1CCC2(CCCC(=O)N2c2ccc(Cl)c(F)c2)CC1	876 µL/min/mg

Hey, quick one: what's microsomal CLint for each of these?
1. O=C(/C=C/C1CC1)N1CCC2(CCCC(=O)N2c2ccc(Cl)c(F)c2)CC1
2. O=C1CCCC2(CCN(c3cnc4ccccc4n3)CC2)N1Cc1ccccc1
3. O=C1CCCC2(CCN(c3cc(OCC(F)(F)F)ncn3)CC2)N1c1ccc(F)c(F)c1
4. O=C1CCCC2(CCN(c3cc(OCC(F)(F)F)ncn3)CC2)N1c1ccc(Cl)c(F)c1
5. O=C(/C=C/c1ccccc1)N1CCC2(CCCC(=O)N2Cc2ccccc2)CC1
6. O=C(/C=C/c1ccccc1)N1CCC2(CCCC(=O)N2c2ccccc2)CC1

Output:
1: 109 µL/min/mg; 2: 832 µL/min/mg; 3: 36 µL/min/mg; 4: 35 µL/min/mg; 5: 770 µL/min/mg; 6: 877 µL/min/mg

Provide each entry's microsomal CLint from the list below.
1. O=C(/C=C/c1ccccc1)N1CCC2(CCCC(=O)N2c2ccc(F)c(F)c2)CC1
2. O=C(/C=C/c1ccccc1)N1CCC2(CCCC(=O)N2c2ccc(Cl)c(F)c2)CC1
3. COc1nc(N(CC(C)(C)F)c2cc(Cl)c(F)cc2F)cnc1C(=O)[C@H]1C[C@@H]1C(=O)O [AZD-9898]

Output:
1: 260 µL/min/mg; 2: 543 µL/min/mg; 3: < 25 µL/min/mg

Quick batch: microsomal CLint for everything below.
1. CC1(C)CN(c2cc(N3CCC4(CCCC(=O)N4c4ccc(Cl)c(F)c4)CC3)ncn2)C1
2. O=C(/C=C/c1ccccc1)N1CCC2(CCOC(=O)N2c2ccc(Cl)c(F)c2)CC1

Output:
1. 520 µL/min/mg
2. 44 µL/min/mg
